# assayed-target: 17β-Hydroxysteroid Dehydrogenase Type 2 Enzyme (17β-HSD2) (Homo sapiens, UniProt P37059)
# Construct: made in house; host or cells: Sf-9 insect cells (baculovirus)
# Sequence (P37059 whole entry): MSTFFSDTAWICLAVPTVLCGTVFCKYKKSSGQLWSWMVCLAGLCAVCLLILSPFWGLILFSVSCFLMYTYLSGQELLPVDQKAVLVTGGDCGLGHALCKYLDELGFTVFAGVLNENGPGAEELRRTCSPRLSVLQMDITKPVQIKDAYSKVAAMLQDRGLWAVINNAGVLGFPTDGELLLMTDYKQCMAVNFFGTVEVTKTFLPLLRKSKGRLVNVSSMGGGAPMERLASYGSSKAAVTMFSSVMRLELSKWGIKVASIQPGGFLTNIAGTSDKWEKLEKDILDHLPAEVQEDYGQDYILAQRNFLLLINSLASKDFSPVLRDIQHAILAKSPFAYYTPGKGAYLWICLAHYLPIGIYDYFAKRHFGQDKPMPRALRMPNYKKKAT
# test-details: Inhibition of the 17β-hydroxysteroid dehydrogenase type 2 enzyme, 3H-testosterone conversion
# Type: biochemical
# assay-setup: inhibitor at 10 μM
// label = yes if inhibition at 10 µM is not less than 10%, otherwise no

Reference set (4 entries):
smiles-text | assayed-target | assigned-label
CC(=O)N1CCN(C(=O)N2CCC(=C(C#N)c3ccc(F)cc3)CC2)CC1 | 17β-Hydroxysteroid Dehydrogenase Type 2 Enzyme (17β-HSD2) (Homo sapiens, UniProt P37059) | no
COCC1CCN(C(=O)N2CCC(=C(C#N)c3ccc(F)cc3)CC2)CC1 | 17β-Hydroxysteroid Dehydrogenase Type 2 Enzyme (17β-HSD2) (Homo sapiens, UniProt P37059) | no
N#CC(=C1CCN(C(=O)N2CCc3sccc3C2)CC1)c1ccc(F)cc1 | 17β-Hydroxysteroid Dehydrogenase Type 2 Enzyme (17β-HSD2) (Homo sapiens, UniProt P37059) | no
COC1CCN(C(=O)N2CCC(=C(C#N)c3cccc4[nH]ncc34)CC2)CC1 | 17β-Hydroxysteroid Dehydrogenase Type 2 Enzyme (17β-HSD2) (Homo sapiens, UniProt P37059) | yes

Q: Test whether the molecule N#CC(=C1CCN(C(=O)N2CCC(CO)CC2)CC1)c1cc(F)cc(F)c1 records inhibition at 10 µM of 10% or higher.
Ans: yes

Q: Test whether the molecule Cn1ncc2cccc(C(C#N)=C3CCN(C(=O)N4CCc5[nH]ncc5C4)CC3)c21 records inhibition at 10 µM of 10% or higher.
Ans: yes

###

# assayed-target: 17β-Hydroxysteroid Dehydrogenase Type 2 Enzyme (17β-HSD2) (Homo sapiens, UniProt P37059)
# Construct: made in house; host or cells: Sf-9 insect cells (baculovirus)
# test-details: Inhibition of the 17β-hydroxysteroid dehydrogenase type 2 enzyme, 3H-testosterone conversion
# Format: biochemical
# assay-setup: inhibitor at 10 μM
# Description: Inhibition of the 17β-Hydroxysteroid Dehydrogenase Type 2 Enzyme Recombinant human 173-HSD2 protein (GenBank Accession No. NM_002153.3) produced in Sf-9 insect cells with baculovirus was used for screening. Recombinant protein (105 nM/4.5 μg/ml) was incubated in 20 mM KH2PO4 pH 8.5, 1 mM EDTA, complete protease inhibitor cocktail, 1 mM NAD with 56.25 nM testosterone (including ^3H-labelled testosterone) for 30 min at RT, in the presence of the potential inhibitor at 10 μM concentration. […]
value-kind: inhibition at 10 µM (%)
Give bare numbers, in %.

Use the examples below as a reference point.
compound | inhibition at 10 µM (%)
CC(O)C1CCN(C(=O)N2CCC(=C(C#N)c3ccc(F)cc3)CC2)CC1 (stereo not shown) | 20
N#CC(=C1CCN(C(=O)N2CCn3nncc3C2)CC1)c1ccc(OC(F)(F)F)cc1 | 1
N#CC(=C1CCN(C(=O)N2C3CCC2COC3)CC1)c1cccc(Cl)c1 | 12
N#CC(=C1CCN(C(=O)N2CCc3nocc3C2)CC1)c1ccc(F)cc1F | 27
N#CC(=C1CCN(C(=O)N2CCC(O)CC2)CC1)c1cc(F)cc(F)c1 | 21

Dear reader, for each entry below, please note its inhibition at 10 µM.
1. N#CC(=C1CCN(C(=O)N2CCn3ncnc3C2)CC1)c1ccc(C(F)(F)F)cc1
2. N#CC(=C1CCN(C(=O)N2CCC(CO)CC2)CC1)c1ccc(Cl)cc1
3. N#CC(=C1CCN(C(=O)N2CCc3nocc3C2)CC1)c1ccc(C(F)(F)F)cc1
4. N#CC(=C1CCN(C(=O)N2CCn3ncnc3C2)CC1)c1ccc(F)cc1

Ans:
1. 8
2. 17
3. 23
4. 13

Dear reader, for each entry below, please note its inhibition at 10 µM.
1. N#CC(=C1CCN(C(=O)N2CCC(C(F)(F)F)CC2)CC1)c1ccc(Cl)cn1
2. N#CC(=C1CCN(C(=O)N2CCC(CCCO)CC2)CC1)c1cccc(Cl)c1
3. N#CC(=C1CCN(C(=O)N2CCc3nocc3C2)CC1)c1cccc(Cl)c1
4. C[C@@H]1CCCCN1C(=O)N1CCC(=C(C#N)c2ccc(F)cc2)CC1
5. N#CC(=C1CCN(C(=O)N2C[C@@H]3CC[C@@H]2C3)CC1)c1ccc(F)cc1
6. N#CC(=C1CCN(C(=O)N2CCn3nncc3C2)CC1)c1cccc(Cl)c1
7. N#CC(=C1CCN(C(=O)N2CCOCC2)CC1)c1ccc(F)cc1

Ans:
4
25
15
30
30
19
2
